# target: MERTK (UniProt Q12866)
# Sequence (Q12866 whole entry, looked up): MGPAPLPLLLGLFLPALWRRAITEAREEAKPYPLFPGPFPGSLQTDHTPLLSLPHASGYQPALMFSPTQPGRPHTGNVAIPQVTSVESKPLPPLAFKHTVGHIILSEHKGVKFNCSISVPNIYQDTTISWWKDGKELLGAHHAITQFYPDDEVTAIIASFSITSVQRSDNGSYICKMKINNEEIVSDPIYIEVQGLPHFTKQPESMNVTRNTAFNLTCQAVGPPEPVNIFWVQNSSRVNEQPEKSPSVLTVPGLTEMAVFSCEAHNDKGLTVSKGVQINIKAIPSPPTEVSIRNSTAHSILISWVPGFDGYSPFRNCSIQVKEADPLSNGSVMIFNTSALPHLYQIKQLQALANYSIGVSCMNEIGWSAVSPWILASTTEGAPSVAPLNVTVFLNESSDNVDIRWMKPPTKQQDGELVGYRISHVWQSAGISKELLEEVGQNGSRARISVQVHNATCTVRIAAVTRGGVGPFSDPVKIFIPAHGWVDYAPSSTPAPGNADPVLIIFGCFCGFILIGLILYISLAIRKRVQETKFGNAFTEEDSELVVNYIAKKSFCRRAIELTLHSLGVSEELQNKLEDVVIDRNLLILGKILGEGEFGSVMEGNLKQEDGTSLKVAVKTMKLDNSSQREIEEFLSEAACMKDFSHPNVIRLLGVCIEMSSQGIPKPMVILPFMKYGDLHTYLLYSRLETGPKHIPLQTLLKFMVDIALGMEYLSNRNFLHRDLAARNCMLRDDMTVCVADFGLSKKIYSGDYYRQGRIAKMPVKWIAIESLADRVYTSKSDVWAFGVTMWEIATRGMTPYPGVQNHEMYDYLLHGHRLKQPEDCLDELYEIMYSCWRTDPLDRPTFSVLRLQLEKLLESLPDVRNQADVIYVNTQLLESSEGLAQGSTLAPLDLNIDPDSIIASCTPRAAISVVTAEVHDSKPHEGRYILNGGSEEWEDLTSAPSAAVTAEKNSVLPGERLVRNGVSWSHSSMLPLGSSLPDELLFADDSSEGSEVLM
# test: phosphorylation enrichment, bacterial display (enrichment ratio); higher = better substrate or ligand; peptides without Tyr show the background;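 note: 11-residue human phosphosite peptides and single-mutation variants displayed on the E. coli surface, counted by deep sequencing, each peptide's frequency after selection divided by its frequency in the unselected input library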;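 note: frequency after pTyr selection over input frequency; kinase dosed for 20-30% of maximal phosphorylation in three min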
Please note: yes (1) applies when phosphorylation enrichment is 0.6 or greater, and no (0) applies otherwise.

residue_codes="SMEGLYSSTQD [CLIC5_Y111]" target="MERTK (UniProt Q12866)" discrete_label="yes (1)"
residue_codes="ACEVLYNIVFM [NCF2_Y125_A128V]" target="MERTK (UniProt Q12866)" discrete_label="yes (1)"
residue_codes="GANSEYIIAEK [ECHS1_Y35_F33S]" target="MERTK (UniProt Q12866)" discrete_label="no (0)"
residue_codes="PSPTKYSLSPS [RANBP2_Y785_R784K]" target="MERTK (UniProt Q12866)" discrete_label="no (0)"
residue_codes="LTMAPYSSVSV [FAM81A_Y24_L29V]" target="MERTK (UniProt Q12866)" discrete_label="no (0)"
residue_codes="ITRDEYPSNPM [CEMIP2_Y1015]" target="MERTK (UniProt Q12866)" discrete_label="no (0)"
residue_codes="ETEMLYGSAPR [PRC1_Y464]" target="MERTK (UniProt Q12866)" discrete_label="no (0)"
